// log10 CC50 at 24 h lookup, one value per entry
test-details: Cytotoxicity, PrestoBlue cell viability assay
Type: cell-based
details: human; HeLa cells, 24 h exposure; read-out: CC50 (50% cytotoxic concentration)
Recorded CC50 at 24 h (log10, µg/mL)

Asked: Read off the recorded log10 CC50 at 24 h for N#Cc1cnn(-c2ccc(C(F)(F)F)cc2[N+](=O)[O-])c1N [Ligand I]
Given back: 2.08

====

Tested on: H. pylori ATCC 43504 (MTZ-R)
test-details: MIC/MBC, broth microdilution
Type: cell-based, Helicobacter pylori
details: H. pylori ATCC 43504 (MTZ-R)
reported-property: MIC (µg/mL)
State the answer as a number, implicitly in µg/mL.

{"columns": ["compound", "meas-value"],
 "data": [
  ["Cc1oc2ccccc2c1CC(=O)NNC(=S)Nc1cccc(C(F)(F)F)c1 [Ligand X]", 8],
  ["Cc1sc2c(c1C)C(O)=C(C(=O)Nc1ccc(OC(F)(F)F)cc1)S(=O)(=O)N2C [Ligand XXVIII]", 16],
  ["CCOC(=O)c1ccc(-n2nnc(C=CC=CN3CCOCC3)n2)cc1 [Ligand XVII]", 4],
  ["NC(Cn1ccc(C(F)(F)F)n1)=NOC(=O)Nc1ccc(SC(F)(F)F)cc1 [Ligand IX]", 4]
]}

Continue with the next compound.
Asked: Fill in MIC for record CC(=O)Nc1cc(C(=O)c2cccs2)nn(-c2ccc(Cl)cc2)c1=O [Ligand XXXI]
Given back: 64
